# Protocol description: Permeability across human Caco-2 cell membrane
# Type: ADME, cell-based
# Condition description: read-out: permeability
Provide the reported Papp of each item.
Provide the reading as a plain figure in ×10⁻⁶ cm/s.

For reference, reported Papp for O=C1Nc2c(ccc(F)c2F)C1(c1ccc(O)cc1)c1ccc(O)cc1 stands at 4.31

For reference, reported Papp for O=C1Nc2c(C(F)(F)F)cccc2C1(c1ccc(O)cc1)c1ccc(O)cc1 stands at 1.96

These data points were gathered from ChEMBL document CHEMBL1139203.
